test system: GRANTA-519 (B-Cell Non-Hodgkin's Lymphoma); test: Bliss excess, mean over the matrix (fraction); higher = more synergy
quantity_name: Bliss excess
Answers are plain numbers.

# input # query: Bliss excess | item CC1(C)CCC(CN2CCN(c3ccc(C(=O)NS(=O)(=O)c4ccc(NCC5CCOCC5)c([N+](=O)[O-])c4)c(Oc4cnc5[nH]ccc5c4)c3)CC2)=C(c2ccc(Cl)cc2)C1 [Venetoclax] + CN(C)CCCOc1ccc(-c2ccc3ncc4c(c3c2)n(C2CCOCC2)c(=O)n4C)cn1 [AZD0156] (first compound max 1 µM, 7x7, partner max 1 µM) | system: GRANTA-519 (B-Cell Non-Hodgkin's Lymphoma)
# output 0.0334

More entries:
# input # query: Bliss excess | item CC(=O)c1c(C)c2cnc(Nc3ccc(N4CCNCC4)cn3)nc2n(C2CCCC2)c1=O [Palbociclib] + CN(CC[C@H](CSC1=CC=CC=C1)NC2=C(C=C(C=C2)S(=O)(=O)NC(=O)C3=CC=C(C=C3)N4CCC(CC4)[C@H](C5=CC=CC=C5C6=CC=C(C=C6)Cl)O)S(=O)(=O)C(F)(F)F)CCO [AZD4320] (first compound max 10 µM, 7x7, partner max 1 µM) | system: GRANTA-519 (B-Cell Non-Hodgkin's Lymphoma)
# output 0.0102

---

system: NCI-H2170 (Squamous Cell Lung Carcinoma); test: Bliss excess, mean over the matrix (fraction); higher = more synergy
quantity_name: Bliss excess
One number for each entry.

Hi, could you look up Bliss excess for each item in my list?
1. CC1(C)CCC(CN2CCN(c3ccc(C(=O)NS(=O)(=O)c4ccc(NCC5CCOCC5)c([N+](=O)[O-])c4)c(Oc4cnc5[nH]ccc5c4)c3)CC2)=C(c2ccc(Cl)cc2)C1 [Venetoclax] + C1CN(CCC1(C(=O)N[C@@H](CCO)C2=CC=C(C=C2)Cl)N)C3=NC=NC4=C3C=CN4 [Capivasertib] (first compound max 1 µM, 7x7, partner max 3 µM)
2. Cc1c2c(nn1C)CSCc1cc(n(C)n1)CSc1cc(c3ccccc3c1)OCCCc1c(C(=O)O)n(C)c3c-2c(Cl)ccc13 [AZD5991] + C1CN(CCC1(C(=O)N[C@@H](CCO)C2=CC=C(C=C2)Cl)N)C3=NC=NC4=C3C=CN4 [Capivasertib] (first compound max 1 µM, 7x7, partner max 3 µM)

# output
-0.0434
-0.0324

---

system: SW1463 (Colorectal Carcinoma); experiment: combination Emax (second highest fraction inhibited in the dose matrix, 72 h); higher = more inhibition; extreme values may be limits of the assay
Could you please report measured combination Emax for the items listed next?
Answers are plain numbers.

See these solved cases before continuing.
# input Missing value: combination Emax, SW1463 (Colorectal Carcinoma), entry COc1cccc2c1C(=O)c1c(O)c3c(c(O)c1C2=O)C[C@@](O)(C(=O)CO)C[C@@H]3O[C@H]1C[C@H](N)[C@H](O)[C@H](C)O1 [Doxorubicin] + Cc1cc2ncnn2cc1Nc1ncc2c(n1)n(C1CCOCC1)c(=O)n2C [AZD7648] (first compound max 1 µM, 7x7, partner max 10 µM) . Fill in?
# output 0.196

# input What value of combination Emax on SW1463 (Colorectal Carcinoma) does COc1nnc2ccc(N3CCC(c4ccc(OCCN5CCN(C)C(=O)[C@H]5C)cc4)CC3)nn12 [AZD5153] + C[C@@H]1COCCN1C2=NC(=NC(=C2)C3(CC3)[S@](=N)(=O)C)C4=C5C=CNC5=NC=C4 [AZD6738] (first compound max 1 µM, 7x7, partner max 10 µM) have?
# output 0.555

# input For SW1463 (Colorectal Carcinoma), provide combination Emax of COc1nnc2ccc(N3CCC(c4ccc(OCCN5CCN(C)C(=O)[C@H]5C)cc4)CC3)nn12 [AZD5153] + CC1(C)CCC(CN2CCN(c3ccc(C(=O)NS(=O)(=O)c4ccc(NCC5CCOCC5)c([N+](=O)[O-])c4)c(Oc4cnc5[nH]ccc5c4)c3)CC2)=C(c2ccc(Cl)cc2)C1 [Venetoclax] (first compound max 1 µM, 7x7, partner max 1 µM) please.
# output 0.581

# input What value of combination Emax on SW1463 (Colorectal Carcinoma) does Cc1c2c(nn1C)CSCc1cc(n(C)n1)CSc1cc(c3ccccc3c1)OCCCc1c(C(=O)O)n(C)c3c-2c(Cl)ccc13 [AZD5991] + Cn1cnc2c(F)c(Nc3ccc(Br)cc3Cl)c(C(=O)NOCCO)cc21 [Selumetinib] (first compound max 1 µM, 7x7, partner max 3 µM) have?
# output 0.547

# input For the record CCc1c2c(nc3ccc(O)cc13)-c1cc3c(c(=O)n1C2)COC(=O)[C@]3(O)CC [SN-38] + O=C(c1cc(Cc2n[nH]c(=O)c3ccccc23)ccc1F)N1CCN(C(=O)C2CC2)CC1 [Olaparib] (first compound max 0.3 µM, 7x7, partner max 10 µM) , what value of combination Emax is listed for SW1463 (Colorectal Carcinoma)?
# output 0.473

# input Notebook entry, SW1463 (Colorectal Carcinoma) assay: combination Emax of C=CCn1c(=O)c2cnc(Nc3ccc(N4CCN(C)CC4)cc3)nc2n1-c1cccc(C(C)(C)O)n1 [AZD1775] + C1CN(CCC1(C(=O)N[C@@H](CCO)C2=CC=C(C=C2)Cl)N)C3=NC=NC4=C3C=CN4 [Capivasertib] (first compound max 3 µM, partner max 3 µM) = ?
# output 0.47

Continue with the compound presented below.
# input Query the reported combination Emax for SW1463 (Colorectal Carcinoma); item: CCN(CCO)CCCOc1ccc2c(Nc3cc(CC(=O)Nc4cccc(F)c4)[nH]n3)ncnc2c1 [AZD2811] + O=C(c1cc(Cc2n[nH]c(=O)c3ccccc23)ccc1F)N1CCN(C(=O)C2CC2)CC1 [Olaparib] (first compound max 1 µM, 7x7, partner max 10 µM)
# output 0.226

---

Exercise: for every item that follows, state its recorded combination Emax.
system: KNS-62 (Squamous Cell Lung Carcinoma); experiment: combination Emax (second highest fraction inhibited in the dose matrix, 72 h); higher = more inhibition; extreme values may be limits of the assay
One number for each entry.

Some compounds with recorded combination Emax:
# input GET /values?readout=combination Emax&item= CN(CCO)CC[C@H](CSc1ccccc1)Nc1ccc(S(=O)(=O)NC(=O)c2ccc(N3CCC([C@@H](O)c4ccccc4-c4ccc(Cl)cc4)CC3)cc2)cc1S(=O)(=O)C(F)(F)F [AZD4320] + C[C@@H]1COCCN1C2=NC(=NC(=C2)C3(CC3)[S@](=N)(=O)C)C4=C5C=CNC5=NC=C4 [AZD6738] (first compound max 1 µM, 7x7, partner max 10 µM)
# output 0.581

# input Which value of combination Emax has been reported for Cc1c2c(nn1C)CSCc1cc(n(C)n1)CSc1cc(c3ccccc3c1)OCCCc1c(C(=O)O)n(C)c3c-2c(Cl)ccc13 [AZD5991] + CC(=O)O[C@H]1C(=O)[C@@]2(C)[C@H]([C@H](OC(=O)c3ccccc3)[C@]3(O)C[C@H](OC(=O)[C@H](O)[C@@H](NC(=O)c4ccccc4)c4ccccc4)C(C)=C1C3(C)C)[C@]1(OC(C)=O)CO[C@@H]1C[C@@H]2O [Paclitaxel] (first compound max 1 µM, 7x7, partner max 3 µM) in the records?
# output 0.6

# input For CC1(C)CCC(CN2CCN(c3ccc(C(=O)NS(=O)(=O)c4ccc(NCC5CCOCC5)c([N+](=O)[O-])c4)c(Oc4cnc5[nH]ccc5c4)c3)CC2)=C(c2ccc(Cl)cc2)C1 [Venetoclax] + CS(=O)(=O)CCNCc1ccc(-c2ccc3ncnc(Nc4ccc(OCc5cccc(F)c5)c(Cl)c4)c3c2)o1 [Lapatinib] (first compound max 1 µM, 7x7, partner max 10 µM) , what is its reported combination Emax?
# output 0.186

# input May I ask what combination Emax has been recorded for Cn1cnc2c(F)c(Nc3ccc(Br)cc3Cl)c(C(=O)NOCCO)cc21 [Selumetinib] + C[C@@H]1COCCN1C2=NC(=NC(=C2)C3(CC3)[S@](=N)(=O)C)C4=C5C=CNC5=NC=C4 [AZD6738] (first compound max 10 µM, 7x7, partner max 10 µM) ?
# output 0.524

# input Requested read-out: combination Emax. Entry: C[C@@H](Oc1cc(-c2cnn(C3CCNCC3)c2)cnc1N)c1c(Cl)ccc(F)c1Cl [Crizotinib] + Cn1cnc2c(F)c(Nc3ccc(Br)cc3Cl)c(C(=O)NOCCO)cc21 [Selumetinib] (first compound max 10 µM, 7x7, partner max 10 µM)
# output 0.369

Please give combination Emax for each item listed below.
1. CC1(C)CCC(CN2CCN(c3ccc(C(=O)NS(=O)(=O)c4ccc(NCC5CCOCC5)c([N+](=O)[O-])c4)c(Oc4cnc5[nH]ccc5c4)c3)CC2)=C(c2ccc(Cl)cc2)C1 [Venetoclax] + COc1cc(Nc2ncc3c(n2)-c2ccc(Cl)cc2C(c2c(F)cccc2OC)=NC3)ccc1C(=O)O [Alisertib] (first compound max 1 µM, 7x7, partner max 10 µM)
2. COc1cc2ncnc(Nc3ccc(F)c(Cl)c3)c2cc1OCCCN1CCOCC1 [Gefitinib] + CC(C)n1c(=O)n(C)c2cnc3cc(F)c(-c4ccc(OCCCN5CCCCC5)nc4)cc3c21 [AZD1390] (first compound max 10 µM, 7x7, partner max 0.3 µM)
3. C[C@@H]1COCCN1c1cc(C2([S@](C)(=N)=O)CC2)nc(-c2ccnc3[nH]ccc23)n1 [AZD6738] + Nc1ccn([C@@H]2O[C@H](CO)[C@@H](O)C2(F)F)c(=O)n1 [Gemcitabine] (first compound max 10 µM, 7x7, partner max 0.3 µM)
4. CS(=O)(=O)CCNCc1ccc(-c2ccc3ncnc(Nc4ccc(OCc5cccc(F)c5)c(Cl)c4)c3c2)o1 [Lapatinib] + Cn1cnc2c(F)c(Nc3ccc(Br)cc3Cl)c(C(=O)NOCCO)cc21 [Selumetinib] (first compound max 10 µM, 7x7, partner max 10 µM)

# output
1: 0.283; 2: 0.0888; 3: 0.665; 4: 0.626
